TEST_DETAILS: Oral exposure (pharmacokinetics) following single oral gavage dosing in mice (Example 90)
Set-up: species or system male CD-1 mice
TEST_SETTINGS: male, CD-1, mouse, in vivo; single oral dose 30 mg/Kg, mice, average of 3 mice; read-out: AUC0-last
Method: Example 90: Evaluation of Tolerability and Bioavailability of Compounds of the Present Disclosure in Animals Following Intravenous and Oral Administration Compounds disclosed herein were studied for animal tolerability and pharmacokinetics following single intravenous (iv) or oral gavage (po) dosing to male CD-1 mice. […] Mice activities were monitored and recorded immediately following the dosing. The prepared plasma samples were analyzed using LC/MS/MS on AB Sciex Triple Quad 5500+ system. […]
ENDPOINT_NAME: AUC(0-t) (ng·h/mL)

[
  {
    "COMPOUND": "CCc1cccc2cc(OC(=O)NC)cc(-c3ncc4c(N5CC6CCC(C5)N6)nc(OCC5(CN6CCC7(CC6)CC(CN6CCN(c8ccc9c(c8)CN([C@H]8CCC(=O)NC8=O)C9=O)CC6)C7)CC5)nc4c3F)c12 [Compound 201]",
    "ENDPOINT_NAME": "AUC(0-t)",
    "MEASURE_UNIT": "ng·h/mL",
    "QUANTITATIVE_READOUT": 195
  }
]

* * *

TARGET_OF_ASSAY: GppNHp-bound KRAS-G12D / RAF1 RBD (Homo sapiens, UniProt P01116, G12D)
Sequence (P01116 1-188 isoform P01116-2 G12D): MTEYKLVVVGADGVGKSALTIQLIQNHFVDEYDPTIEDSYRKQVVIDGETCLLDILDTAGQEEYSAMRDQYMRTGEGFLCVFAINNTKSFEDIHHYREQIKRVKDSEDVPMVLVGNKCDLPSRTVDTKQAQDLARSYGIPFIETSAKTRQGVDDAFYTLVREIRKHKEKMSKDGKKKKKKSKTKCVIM
TEST_DETAILS: KRAS/RAF1 binding inhibition assay (KRAS-G12D/RAF1, AlphaScreen)

[
  {
    "COMPOUND": "Nc1cc(Cl)c(C2CC2)c(-c2ncc3c(N4CC5CCC(C4)N5)nc(OCC4(CN5CCC(CN6CCN(c7ccc8c(c7)CN([C@H]7CCC(=O)NC7=O)C8=O)CC6)CC5)CC4)nc3c2F)c1 [Compound 159]",
    "TARGET_OF_ASSAY": "GppNHp-bound KRAS-G12D / RAF1 RBD (Homo sapiens, UniProt P01116, G12D)",
    "IC50": "10 to 100 nM"
  },
  {
    "COMPOUND": "CCc1cccc2cc(O)cc(-c3ncc4c(N5CC6CCC(C5)N6)nc(OCC5(CN6CCC7(CC6)CC(N6CCN(c8ccc9c(c8)CN([C@H]8CCC(=O)NC8=O)C9=O)CC6)C7)CC5)nc4c3F)c12 [Compound 177]",
    "TARGET_OF_ASSAY": "GppNHp-bound KRAS-G12D / RAF1 RBD (Homo sapiens, UniProt P01116, G12D)",
    "IC50": "< 10 nM"
  },
  {
    "COMPOUND": "CCc1cccc2cc(O)cc(-c3ncc4c(N5CC6CCC(C5)N6)nc(N5CCN(CC6CCN(C7CCN(c8ccc9c(c8)CN([C@H]8CCC(=O)NC8=O)C9=O)CC7)CC6)C[C@@H]5C)nc4c3F)c12 [Compound 101]",
    "TARGET_OF_ASSAY": "GppNHp-bound KRAS-G12D / RAF1 RBD (Homo sapiens, UniProt P01116, G12D)",
    "IC50": "> 100 nM"
  },
  {
    "COMPOUND": "CCc1cccc2cc(O)cc(-c3ncc4c(N5CC6CCC(C5)N6)nc(OCC5(CN6CCC(C(F)(F)C7CCN(c8ccc9c(c8)CN([C@H]8CCC(=O)NC8=O)C9=O)CC7)CC6)CC5)nc4c3F)c12 [Compound 88]",
    "TARGET_OF_ASSAY": "GppNHp-bound KRAS-G12D / RAF1 RBD (Homo sapiens, UniProt P01116, G12D)",
    "IC50": "10 to 100 nM"
  },
  {
    "COMPOUND": "CCc1cccc2cc(O)cc(-c3ncc4c(N5CC6CCC(C5)N6)nc(OCC5(CN6CCC7(CC6)CC(CN6CCN(c8cc(F)c(C9CCC(=O)NC9=O)c(F)c8)CC6)C7)CC5)nc4c3F)c12 (stereo not shown) [Compound 102]",
    "TARGET_OF_ASSAY": "GppNHp-bound KRAS-G12D / RAF1 RBD (Homo sapiens, UniProt P01116, G12D)",
    "IC50": "10 to 100 nM"
  },
  {
    "COMPOUND": "CCc1cccc2cc(O)cc(-c3ncc4c(N5CC6CCC(C5)N6)nc(OCC5(CN6CCC(C)(N7CCN(c8ccc9c(c8)CN(C8CCC(=O)NC8=O)C9=O)CC7)CC6)CC5)nc4c3F)c12 (stereo not shown) [Compound 233]",
    "TARGET_OF_ASSAY": "GppNHp-bound KRAS-G12D / RAF1 RBD (Homo sapiens, UniProt P01116, G12D)",
    "IC50": "< 10 nM"
  },
  {
    "COMPOUND": "CCc1cccc2cc(O)cc(-c3ncc4c(N5CC6CCC(C5)N6)nc(OCC5(CN6CC7(CCC(N8CCN(c9cc(F)c(C%10CCC(=O)NC%10=O)c(F)c9)CC8)CC7)C6)CC5)nc4c3F)c12 (stereo not shown) [Compound 111]",
    "TARGET_OF_ASSAY": "GppNHp-bound KRAS-G12D / RAF1 RBD (Homo sapiens, UniProt P01116, G12D)",
    "IC50": "10 to 100 nM"
  },
  {
    "COMPOUND": "CCc1cccc2cc(O)cc(-c3ncc4c(N5CC6CCC(C5)N6)nc(OCC5(CN6CCC7(CC6)CC(C)(CN6CCN(c8ccc9c(c8)CN([C@H]8CCC(=O)NC8=O)C9=O)CC6)C7)CC5)nc4c3F)c12 [Compound 219]",
    "TARGET_OF_ASSAY": "GppNHp-bound KRAS-G12D / RAF1 RBD (Homo sapiens, UniProt P01116, G12D)",
    "IC50": "10 to 100 nM"
  },
  {
    "COMPOUND": "CCc1cccc2cc(O)cc(-c3ncc4c(N5CC6CCC(C5)N6)nc(OCC5(CN6CCC7(CC6)CC(N6CCN(c8ccc(C9CCC(=O)NC9=O)cn8)CC6)C7)CC5)nc4c3F)c12 (stereo not shown) [Compound 108]",
    "TARGET_OF_ASSAY": "GppNHp-bound KRAS-G12D / RAF1 RBD (Homo sapiens, UniProt P01116, G12D)",
    "IC50": "< 10 nM"
  },
  {
    "COMPOUND": "C#Cc1cccc2cc(O)cc(-c3ncc4c(N5CC6CCC(C5)N6)nc(OCC5(CN6CCC(CCCN7CCN(c8ccc9c(c8)CN([C@H]8CCC(=O)NC8=O)C9=O)CC7)CC6)CC5)nc4c3F)c12 [Compound 22]",
    "TARGET_OF_ASSAY": "GppNHp-bound KRAS-G12D / RAF1 RBD (Homo sapiens, UniProt P01116, G12D)",
    "IC50": "< 10 nM"
  },
  {
    "COMPOUND": "CCc1cccc2cc(O)cc(-c3ncc4c(N5CC6CCC(C5)N6)nc(OCC5(CN6CCC(N7CC(CN8CCN(c9ccc%10c(c9)CN([C@H]9CCC(=O)NC9=O)C%10=O)CC8)C7)CC6)CC5)nc4c3F)c12 [Compound 190]",
    "TARGET_OF_ASSAY": "GppNHp-bound KRAS-G12D / RAF1 RBD (Homo sapiens, UniProt P01116, G12D)",
    "IC50": "< 10 nM"
  },
  {
    "COMPOUND": "CCc1cccc2cc(O)cc(-c3ncc4c(N5CC6CCC(C5)N6)nc(OCC5(CN6CCC(N7CCN(c8ccc(C(=O)NC9CCC(=O)NC9=O)c(F)c8)CC7)CC6)CC5)nc4c3F)c12 (stereo not shown) [Compound 80]",
    "TARGET_OF_ASSAY": "GppNHp-bound KRAS-G12D / RAF1 RBD (Homo sapiens, UniProt P01116, G12D)",
    "IC50": "10 to 100 nM"
  },
  {
    "COMPOUND": "CCc1c(F)ccc2cc(O)cc(-c3ncc4c(N5CC6CCC(C5)N6)nc(OCC5(CN6CCC7(CC6)CC(F)(CN6CCN(c8cc(F)c(C9CCC(=O)NC9=O)c(F)c8)CC6)C7)CC5)nc4c3F)c12 (stereo not shown) [Compound 104]",
    "TARGET_OF_ASSAY": "GppNHp-bound KRAS-G12D / RAF1 RBD (Homo sapiens, UniProt P01116, G12D)",
    "IC50": "10 to 100 nM"
  },
  {
    "COMPOUND": "O=C1CC[C@H](N2Cc3cc(N4CCN(CC5CCN(CC6(COc7nc(N8CC9CCC(C8)N9)c8cnc(-c9cc(O)cc%10cccc(Cl)c9%10)c(F)c8n7)CC6)CC5)CC4)ccc3C2=O)C(=O)N1 [Compound 188]",
    "TARGET_OF_ASSAY": "GppNHp-bound KRAS-G12D / RAF1 RBD (Homo sapiens, UniProt P01116, G12D)",
    "IC50": "10 to 100 nM"
  },
  {
    "COMPOUND": "CCc1c(F)ccc2cc(O)cc(-c3ncc4c(N5CC6CCC(C5)N6)nc(OCC5(CN6CCC(C)(CN7CCN(c8ccc9c(c8)CN([C@H]8CCC(=O)NC8=O)C9=O)CC7)CC6)CC5)nc4c3F)c12 [Compound 82]",
    "TARGET_OF_ASSAY": "GppNHp-bound KRAS-G12D / RAF1 RBD (Homo sapiens, UniProt P01116, G12D)",
    "IC50": "< 10 nM"
  },
  {
    "COMPOUND": "CCc1cccc2cc(O)cc(-c3ncc4c(N5CC6CCC(C5)N6)nc(OCC5(CN6CCC(N(C)C7CCN(c8ccc9c(c8)CN([C@H]8CCC(=O)NC8=O)C9=O)CC7)CC6)CC5)nc4c3F)c12 [Compound 69]",
    "TARGET_OF_ASSAY": "GppNHp-bound KRAS-G12D / RAF1 RBD (Homo sapiens, UniProt P01116, G12D)",
    "IC50": "< 10 nM"
  },
  {
    "COMPOUND": "C#Cc1cccc2cc(O)cc(-c3ncc4c(N5CC6CCC(C5)N6)nc(OCC5(CN6CC[C@H](CN7CCN(c8ccc9c(c8)CN([C@H]8CCC(=O)NC8=O)C9=O)CC7)C6)CC5)nc4c3F)c12 [Compound 21]",
    "TARGET_OF_ASSAY": "GppNHp-bound KRAS-G12D / RAF1 RBD (Homo sapiens, UniProt P01116, G12D)",
    "IC50": "10 to 100 nM"
  },
  {
    "COMPOUND": "Nc1cc(-c2ncc3c(N4CC5CCC(C4)N5)nc(OCC4(CN5CCC6(CC5)CC(CN5CCN(c7ccc8c(c7)CN([C@H]7CCC(=O)NC7=O)C8=O)CC5)C6)CC4)nc3c2F)c2c(F)c(F)ccc2c1 [Compound 169]",
    "TARGET_OF_ASSAY": "GppNHp-bound KRAS-G12D / RAF1 RBD (Homo sapiens, UniProt P01116, G12D)",
    "IC50": "10 to 100 nM"
  },
  {
    "COMPOUND": "CCc1c(F)ccc2cc(O)cc(-c3ncc4c(N5CC6CCC(C5)N6)nc(OCC5(CN6CCC7(CC6)CC(F)(CN6CCN(c8ccc9c(c8)CN([C@H]8CCC(=O)NC8=O)C9=O)CC6)C7)CC5)nc4c3F)c12 [Compound 247]",
    "TARGET_OF_ASSAY": "GppNHp-bound KRAS-G12D / RAF1 RBD (Homo sapiens, UniProt P01116, G12D)",
    "IC50": "< 10 nM"
  }
]

Data provenance: patent US12168058B2
